# assay.text: Quantitative High-Throughput drug screen in 47 multiple myeloma cell lines against the NCATS MIPE library collection: L363_DSMZ cell viability assay (AID 1918984); further: nearly all actives have a fitted effect of over 40% in size; further: potency means the concentration at half of the fitted maximal effect
# measurement.context: L363 myeloma viability, CellTiter-Glo ATP luminescence, 48 h
Records with an inconclusive call do not appear. Calls of active or inactive are those of the source. The call rests on the fitted dose curve; in most records, active means well fitted cell-killing curve with a large enough effect; inconclusive means small, poorly fitted or top-dose-only effect, or effect the other way; inactive means no such curve, though single readings can be large or run the other way.

[
  {
    "compound": "CC(NCCc1ccc(O)cc1)C(O)c1ccc(O)cc1 (stereo not drawn)",
    "Potency": "inactive"
  },
  {
    "compound": "Cc1cc(CS(=O)(=O)c2ccccc2)cc(OCc2ccc(CN3CCC[C@H]3CO)cc2)c1",
    "Potency": "8.33 µM (active)"
  },
  {
    "compound": "CC[C@]1(O)C[C@H]2CN(CCC3=c4ccccc4=N[C]3[C@@](C(=O)OC)(c3cc4c(cc3OC)N(C)[C@H]3[C@@](O)(C(N)=O)[C@H](O)[C@]5(CC)C=CCN6CC[C@]43[C@@H]65)C2)C1",
    "Potency": "0.132 µM (active)"
  },
  {
    "compound": "C[C@H]1COC2=C1C(=O)C(=O)c1c2ccc2c1CCCC2(C)C",
    "Potency": "inactive"
  },
  {
    "compound": "C[C@H](CCC(=O)O)[C@H]1CC[C@H]2[C@H]3[C@@H](CC[C@]12C)[C@@]1(C)CC[C@@H](O)C[C@H]1C[C@@H]3O",
    "Potency": "inactive"
  },
  {
    "compound": "Nc1ccn([C@@H]2O[C@H](CO)[C@@H](O)[C@H]2O)c(=O)n1",
    "Potency": "inactive"
  },
  {
    "compound": "COc1nc(C)cnc1NS(=O)(=O)c1cccnc1-c1ccc(-c2nnco2)cc1",
    "Potency": "inactive"
  },
  {
    "compound": "CCN(CCO)CCCOc1ccc2c(Nc3cc(CC(=O)Nc4cccc(F)c4)[nH]n3)ncnc2c1",
    "Potency": "inactive"
  }
]
